- Test system: histone modifications in 2102EP cells
- assayComment: Mass spectrometry analysis of histone modifications (Mod Spec)
- Assay type: cell-based, Human
- statedConditions: 2102EP cells; Mod Spec raw data
Measured H3: K79AC, % of peptide pool by item
reportedProperty: H3: K79AC, % of peptide pool (%)

| compound | reportedProperty | dataValue |
| --- | --- | --- |
| CN1C(=O)[C@@]23C[C@]4([C@]56C[C@@]78SS[C@@](CO)(C(=O)N7[C@H]5Nc5ccccc56)N(C)C8=O)c5ccccc5N[C@@H]4N2C(=O)[C@]1(CO)SS3 [Chaetocin] | H3: K79AC, % of peptide pool | 1.813 |
| Cn1cc(CNCC2CCN(c3ncc(C(=O)NO)cn3)CC2)c2ccccc21 [Quisinostat] | H3: K79AC, % of peptide pool | 0.6776 |
| CCCc1cc(C)[nH]c(=O)c1CNC(=O)c1cc(-c2ccnc(N3CCN(C)CC3)c2)cc2c1cnn2C(C)C [GSK343] | H3: K79AC, % of peptide pool | 0.7184 |
| Clc1ccc(N/N=C(\c2ccccc2)c2ccccn2)nc1 [JIB-04] | H3: K79AC, % of peptide pool | 0.03684 |

====

- Tested on: Sertoli cells FS1 (SC)
- assayComment: XTT cell viability assay, Sertoli cells
- Format: cell-based
- statedConditions: Homo sapiens; after 48 h
pEC50: −log10 of the molar value.
reportedProperty: pEC50

| molecule | dataValue |
| --- | --- |
| Cn1cc(CNCC2CCN(c3ncc(C(=O)NO)cn3)CC2)c2ccccc21 [Quisinostat] | 8.20 |
| CCCc1cc(C)[nH]c(=O)c1CNC(=O)c1cc(-c2ccnc(N3CCN(C)CC3)c2)cc2c1cnn2C(C)C [GSK343] | 4.97 |
| CN1C(=O)[C@@]23C[C@]4([C@]56C[C@@]78SS[C@@](CO)(C(=O)N7[C@H]5Nc5ccccc56)N(C)C8=O)c5ccccc5N[C@@H]4N2C(=O)[C@]1(CO)SS3 [Chaetocin] | 7.16 |

====

- System: histone modifications in 2102EP cells
- assayComment: Mass spectrometry analysis of histone modifications (Mod Spec)
- Format: cell-based, Human
- statedConditions: 2102EP cells; Mod Spec raw data
reportedProperty: H2A: K5UN, % of peptide pool (%)

| chemicalSmiles | reportedProperty | dataValue |
| --- | --- | --- |
| Cc1cc(=O)n(C)c2cc(N3C(=O)CC[C@H](NS(=O)(=O)CC(C)C)[C@H]3c3ccc(Cl)cc3)ccc12 | H2A: K5UN, % of peptide pool | 87.4625 |
| Clc1ccc(N/N=C(\c2ccccc2)c2ccccn2)nc1 | H2A: K5UN, % of peptide pool | 82.6565 |
| Cc1ncsc1-c1ccc(CNC(=O)[C@@H]2C[C@@H](O)CN2C(=O)[C@@H](NC(=O)COCCOCCOCCNC(=O)C[C@@H]2N=C(c3ccc(Cl)cc3)c3c(sc(C)c3C)-n3c(C)nnc32)C(C)(C)C)cc1 | H2A: K5UN, % of peptide pool | 83.2308 |
| CCCc1cc(C)[nH]c(=O)c1CNC(=O)c1cc(-c2ccnc(N3CCN(C)CC3)c2)cc2c1cnn2C(C)C | H2A: K5UN, % of peptide pool | 86.8994 |
| O=C1C(=Cc2cccnc2)C(=O)c2ccccc21 | H2A: K5UN, % of peptide pool | 84.5818 |
| CN1C(=O)[C@@]23C[C@]4([C@]56C[C@@]78SS[C@@](CO)(C(=O)N7[C@H]5Nc5ccccc56)N(C)C8=O)c5ccccc5N[C@@H]4N2C(=O)[C@]1(CO)SS3 | H2A: K5UN, % of peptide pool | 85.6812 |
| Cn1cc(CNCC2CCN(c3ncc(C(=O)NO)cn3)CC2)c2ccccc21 | H2A: K5UN, % of peptide pool | 69.4975 |
